Reference for the values: ChEMBL document CHEMBL1123279

Test: Partition coefficient (logD7.4)
Format: physicochemical
Settings: octanol/water, pH 7.4
Recorded Metric: logD

// known answers, use as guide
Compound: COCc1c[nH]c(-c2ccc(OCC(O)CNCCc3ccc(OC)c(OC)c3)cc2)n1 (stereo not given)
Quantitative Result: 0.799

Compound: COc1ccc(CCNCC(O)COc2ccc(CCc3nc(-c4cccs4)c[nH]3)cc2)cc1OC (stereo not given)
Quantitative Result: 1.53

Compound: COc1ccc(CCNC[C@H](O)COc2ccc(Cc3nc(C(C)=O)c[nH]3)cc2)cc1OC
Quantitative Result: 0.301

Compound: CC(C)NCC(O)COc1ccc(-c2nc(C(C)C)c[nH]2)cc1 (stereo not given)
Quantitative Result: 0.952

Compound: COc1ccc(CCNCC(O)COc2ccc(-c3nc(C(C)=O)c(C)[nH]3)cc2)cc1OC (stereo not given)
Quantitative Result: 1.28

a. COc1ccc(CCNCC(O)COc2ccc(-c3nc(CO)c[nH]3)cc2)cc1OC (stereo not given)
b. COc1ccc(CCNCC(O)COc2ccc(-c3nc(Br)c[nH]3)cc2Cl)cc1OC (stereo not given)
c. CCOC(=O)c1c[nH]c(-c2ccc(OCC(O)CNCCc3ccc(OC)c(OC)c3)cc2)n1 (stereo not given)
Q. Rank the 3 compounds: largest logD first, smallest last. List each label, following the requested order.
A. b, c, a
(b: 2.31, c: 1.41, a: 0)

----------
Test: Partition coefficient (logD7.4)
Type: physicochemical
Conditions: octanol/water, pH 7.4
Recorded Metric: logD

Compound: COc1ccc(CCNCC(O)COc2ccc(-c3nc(C)c[nH]3)cc2OC)cc1OC (stereo not drawn)
logD: 0.968

Compound: CC(C)NCC(O)COc1ccc(-c2nc(-c3cccs3)c[nH]2)cc1 (stereo not drawn)
logD: 1.18

Compound: COc1ccc(CCNCC(O)COc2ccc(-c3nc(C)c(C)[nH]3)cc2)cc1OC (stereo not drawn)
logD: 1.02

----------
Assay: Dissociation constant (pKa)
Assay type: physicochemical
Recorded Metric: pKa

Molecule: COCCc1c[nH]c(-c2ccc(OCC(O)CNCCc3ccc(OC)c(OC)c3)cc2)n1 (stereo not drawn)
Quantitative Result: 5.9
//
Molecule: COCc1c[nH]c(-c2ccc(OCC(O)CNCCc3ccc(OC)c(OC)c3)cc2)n1 (stereo not drawn)
Quantitative Result: 5.64
//
Molecule: CCOCc1c[nH]c(-c2ccc(OCC(O)CNCCc3ccc(OC)c(OC)c3)cc2)n1 (stereo not drawn)
Quantitative Result: 5.25
//
Molecule: COc1ccc(CCNCC(O)COc2ccc(-c3nc(CO)c[nH]3)cc2)cc1OC (stereo not drawn)
Quantitative Result: 5.55
//
Molecule: COc1ccc(CCNCC(O)COc2ccc(-c3nc(CN4CCOCC4)c[nH]3)cc2)cc1OC (stereo not drawn)
Quantitative Result: 3.54
//
Molecule: CC(C)NCC(O)COc1ccc(-c2nc(C(C)C)c[nH]2)cc1 (stereo not drawn)
Quantitative Result: 6.32
//
Molecule: COc1ccc(CCNCC(O)COc2ccc(COCc3ncc[nH]3)cc2)cc1OC (stereo not drawn)
Quantitative Result: 5.5
//
Molecule: CC(C)NCC(O)COc1ccc(-c2nc(-c3cccs3)c[nH]2)cc1 (stereo not drawn)
Quantitative Result: 4.9
//
Molecule: COc1ccc(CCNC[C@H](O)COc2ccc(Cc3nc(C(C)=O)c[nH]3)cc2)cc1OC
Quantitative Result: 3.95
//
Molecule: COc1ccc(CCNCC(O)COc2ccc(-c3nc(-c4cccs4)c[nH]3)cc2C)cc1OC (stereo not drawn)
Quantitative Result: 4.55
//
Molecule: COc1ccc(CCNCC(O)COc2ccc(CCc3nc(Br)c[nH]3)cc2)cc1OC (stereo not drawn)
Quantitative Result: 3.65
//
Molecule: OC(CNCCc1ccncc1)COc1ccc(-c2nc(-c3cccs3)c[nH]2)cc1 (stereo not drawn)
Quantitative Result: 3.8
//
Molecule: COc1ccc(CCNCC(O)COc2ccc(-c3nc(C(C)=O)c(C)[nH]3)cc2)cc1OC (stereo not drawn)
Quantitative Result: 4
//
Molecule: COc1ccc(CCNC[C@H](O)COc2ccc(-c3nc(C(C)(C)C)c[nH]3)cc2)cc1OC
Quantitative Result: 6.42
//
Molecule: Cc1c[nH]c(Cc2ccc(OCC(O)CNC(C)(C)C)cc2)n1 (stereo not drawn)
Quantitative Result: 6.93
//
Molecule: CC(C)NCC(O)COc1ccc(-c2ncc[nH]2)cc1 (stereo not drawn)
Quantitative Result: 5.65
//
Molecule: CCOCCNCC(O)COc1ccc(-c2nc(-c3cccs3)c[nH]2)cc1 (stereo not drawn)
Quantitative Result: 4.5
//
Molecule: CCOC(=O)c1c[nH]c(-c2ccc(OCC(O)CNCCc3ccc(OC)c(OC)c3)cc2)n1 (stereo not drawn)
Quantitative Result: 3.8
//
Molecule: COc1ccc(CCNCC(O)COc2ccc(-c3nc(C(C)C)c[nH]3)cc2)cc1OC (stereo not drawn)
Quantitative Result: 6.78
//
Molecule: COc1ccc(CCNCC(O)COc2ccc(-c3nc(Br)c(C)[nH]3)cc2)cc1OC (stereo not drawn)
Quantitative Result: 5.8
//
Molecule: COc1ccc(CCNCC(O)COc2ccc(-c3nccn3C)cc2)cc1OC.Cl.Cl (stereo not drawn)
Quantitative Result: 6.7
//
Molecule: CC(C)NCC(O)COc1ccc(Cc2nc(Br)c[nH]2)cc1 (stereo not drawn)
Quantitative Result: 3.75
//
Molecule: COc1ccc(CCNCC(O)COc2ccc(Cc3nc(-c4cccs4)c[nH]3)cc2)cc1OC (stereo not drawn)
Quantitative Result: 4.99
